molecular target: Gamma-secretase; assay: Inhibition of gamma-secretase in human SHSY5Y cells expressing Swedish variant of APP K595N/M596L assessed as reduction of amyloid beta 40 formation after 16 hrs by ELISA; assay type: cell-based; conditions: sh-sy5y
readout-type: pIC50

compound: COc1cc(-c2ccc(N[C@@H](C)c3ccc(C(F)(F)F)cc3)nn2)ccc1-n1cnc(C)c1
pIC50: 6.9

compound: COc1cc(-c2ccc(N[C@H](c3ccc(F)cc3)C(C)(C)O)nn2)ccc1-n1cnc(C)c1
pIC50: 6.8

compound: COc1cc(-c2cc(C(F)(F)F)c(N[C@@H](C)c3ccc(F)cc3)nn2)ccc1-n1cnc(C)c1
pIC50: 5.6

compound: COc1cc(-c2ccc(NC(C)(C)c3ccc(F)cc3)nn2)ccc1-n1cnc(C)c1
pIC50: 6.1

compound: COc1cc(-c2cc(C(C)C)c(N[C@@H](C)c3ccc(F)cc3)nn2)ccc1-n1cnc(C)c1
pIC50: 7

compound: COc1cc(-c2ccc(N[C@@H](C)c3ccc(F)cc3)nn2)ccc1-n1cnc(C)c1
pIC50: 6.7

compound: COc1cc(-c2ccc(N[C@@H](C)c3ccccc3F)nn2)ccc1-n1cnc(C)c1
pIC50: 7.1

compound: COc1cc(-c2nnc(N[C@@H](C)c3ccc(F)cc3)cc2C)ccc1-n1cnc(C)c1
pIC50: 6.3

compound: CCc1cc(-c2ccc(-n3cnc(C)c3)c(OC)c2)nnc1N[C@@H](C)c1ccc(F)cc1
pIC50: 6.8

compound: CC[C@H](Nc1ccc(-c2ccc(-n3cnc(C)c3)c(OC)c2)nn1)c1ccc(F)cc1
pIC50: 6.9

compound: COc1cc(-c2ccc(N[C@@H](C)c3ccccc3)nn2)ccc1-n1cnc(C)c1
pIC50: 6.8

compound: COc1cc(-c2ccc(NCc3ccc(F)cc3)nn2)ccc1-n1cnc(C)c1
pIC50: 6.2

compound: COc1cc(-c2ccc(NC(=O)c3ccc(F)cc3)nn2)ccc1-n1cnc(C)c1
pIC50: 4.7

compound: COc1cc(-c2ccc(N[C@@H](C)c3cccc(F)c3)nn2)ccc1-n1cnc(C)c1
pIC50: 6.9

compound: COc1cc(-c2nnc(N[C@@H](C)c3ccc(F)cc3)c(C)c2C)ccc1-n1cnc(C)c1
pIC50: 5.9

compound: COC[C@H](Nc1ccc(-c2ccc(-n3cnc(C)c3)c(OC)c2)nn1)c1ccccc1
pIC50: 6.5

compound: COc1ccc([C@H](C)Nc2ccc(-c3ccc(-n4cnc(C)c4)c(OC)c3)nn2)cc1
pIC50: 6.8

compound: COc1cc(-c2cc(C)c(N[C@@H](C)c3ccc(F)cc3)nn2)ccc1-n1cnc(C)c1
pIC50: 6.7

compound: COc1cc(-c2cc(C#N)c(N[C@@H](C)c3ccc(F)cc3)nn2)ccc1-n1cnc(C)c1
pIC50: 5.8

compound: COc1cc(-c2ccc(N[C@H](C)c3ccc(F)cc3)nn2)ccc1-n1cnc(C)c1
pIC50: 6

###

experiment: Drug level in rat blood at 30 mg/kg, po after 6 hrs; assay type: ADME, organism-based; parameters: dose 30 mg/kg, route oral; settings: read-out: Drug uptake
readout-type: concentration at 6 h (µM)
Report as a plain number; the unit µM is understood.

**Query** Name the reported concentration at 6 h value associated with the molecule COc1cc(-c2cc(C)c(N[C@@H](C)c3ccc(F)cc3)nn2)ccc1-n1cnc(C)c1
**Result** 16

###

test: Clearance in Sprague-Dawley rat blood at 1 mg/kg, iv and 2 mg/kg, po; assay type: ADME, organism-based
readout-type: clearance (mL/min/kg)
# unit: mL/min/kg | format: bare number

**Query** Item under review: COc1cc(-c2cc(C)c(N[C@@H](C)c3ccc(F)cc3)nn2)ccc1-n1cnc(C)c1.Cl . Reported clearance?
**Result** 5.1

###

experiment: Ratio of drug level in brain to blood in rat at 30 mg/kg, po after 6 hrs; assay type: ADME, organism-based; parameters: dose 30 mg/kg, route oral; details: read-out: BBR
readout-type: Kp at 6 h
Enter a number only.

**Query** Report Kp at 6 h for COc1cc(-c2cc(C)c(N[C@@H](C)c3ccc(F)cc3)nn2)ccc1-n1cnc(C)c1 please.
**Result** 0.56

###

molecular target: Gamma-secretase; assay: Inhibition of gamma-secretase in human SHSY5Y cells expressing Swedish variant of APP K595N/M596L assessed as reduction of amyloid beta 42 formation after 16 hrs by ELISA; assay type: cell-based; conditions: sh-sy5y
readout-type: pIC50

compound: COc1cc(-c2ccc(NC(C)(C)c3ccc(F)cc3)nn2)ccc1-n1cnc(C)c1
pIC50: 7
//
compound: CCc1cc(-c2ccc(-n3cnc(C)c3)c(OC)c2)nnc1N[C@@H](C)c1ccc(F)cc1
pIC50: 7.2
//
compound: COC[C@H](Nc1ccc(-c2ccc(-n3cnc(C)c3)c(OC)c2)nn1)c1ccccc1
pIC50: 6.8
//
compound: COc1cc(-c2ccc(NC(=O)c3ccc(F)cc3)nn2)ccc1-n1cnc(C)c1
pIC50: 5.6
//
compound: COc1cc(-c2cc(C(C)C)c(N[C@@H](C)c3ccc(F)cc3)nn2)ccc1-n1cnc(C)c1
pIC50: 7.3
//
compound: COc1cc(-c2ccc(N[C@@H](C)c3ccc(F)cc3)nn2)ccc1-n1cnc(C)c1
pIC50: 7.2
//
compound: COc1cc(-c2ccc(NCc3ccc(F)cc3)nn2)ccc1-n1cnc(C)c1
pIC50: 6.5
//
compound: COc1cc(-c2ccc(N[C@@H](C)c3ccc(C(F)(F)F)cc3)nn2)ccc1-n1cnc(C)c1
pIC50: 7.3
//
compound: COc1cc(-c2nnc(N[C@@H](C)c3ccc(F)cc3)cc2C)ccc1-n1cnc(C)c1
pIC50: 6.7
//
compound: COc1cc(-c2nnc(N[C@@H](C)c3ccc(F)cc3)c(C)c2C)ccc1-n1cnc(C)c1
pIC50: 6.5
//
compound: COc1ccc([C@H](C)Nc2ccc(-c3ccc(-n4cnc(C)c4)c(OC)c3)nn2)cc1
pIC50: 6.8
//
compound: COc1cc(-c2ccc(N[C@@H](C)c3cccc(F)c3)nn2)ccc1-n1cnc(C)c1
pIC50: 7.2
//
compound: COc1cc(-c2ccc(N[C@H](c3ccc(F)cc3)C(C)(C)O)nn2)ccc1-n1cnc(C)c1
pIC50: 7.4
//
compound: CC[C@H](Nc1ccc(-c2ccc(-n3cnc(C)c3)c(OC)c2)nn1)c1ccc(F)cc1
pIC50: 7.3
//
compound: COc1cc(-c2cc(C)c(N[C@@H](C)c3ccc(F)cc3)nn2)ccc1-n1cnc(C)c1
pIC50: 7.2
//
compound: COc1cc(-c2cc(C(F)(F)F)c(N[C@@H](C)c3ccc(F)cc3)nn2)ccc1-n1cnc(C)c1
pIC50: 7
//
compound: COc1cc(-c2ccc(N[C@H](C)c3ccc(F)cc3)nn2)ccc1-n1cnc(C)c1
pIC50: 6.2
//
compound: COc1cc(-c2ccc(N[C@@H](C)c3ccccc3F)nn2)ccc1-n1cnc(C)c1
pIC50: 7.3
//
compound: COc1cc(-c2ccc(N[C@@H](C)c3ccccc3)nn2)ccc1-n1cnc(C)c1
pIC50: 7.1
//
compound: COc1cc(-c2cc(C#N)c(N[C@@H](C)c3ccc(F)cc3)nn2)ccc1-n1cnc(C)c1
pIC50: 6.9
